Values compiled from paper PMC8205603.

- test name: Pharmacokinetics study in rats after single or combined intragastric administration
- Assay type: in vivo, Sprague-Dawley rats
- run parameters: male, Sprague-Dawley, rat, plasma, po, 2.6 mg/kg, pioglitazone 2.6 mg/kg in combination with omarigliptin 2.6 mg/kg, intragastric, male SD rats, n = 5
Structures can show the parent of a compound that is named as a salt.
measure: Cmax (ng/mL)
Answer with a number only, understood to be in ng/mL.

Name the recorded Cmax for CCc1ccc(CCOc2ccc(CC3SC(=O)NC3=O)cc2)nc1 (stereo not shown) [Pioglitazone, Pioglitazone hydrochloride] .
2460

----------
- test name: Pharmacokinetics study in rats after single or combined intragastric administration
- Format: in vivo, Sprague-Dawley rats
- run parameters: male, Sprague-Dawley, rat, plasma, po, 2.6 mg/kg, pioglitazone 2.6 mg/kg intragastric, single administration, male SD rats, n = 5
- Protocol: Fifteen male Sprague-Dawley rats (6-8 weeks old, 190-210 g) were purchased from Jinan Pengyue Laboratory Animal Technology Co., Ltd. (Jinan, China). The animal certification number was 3707262011004044 and the production license number was SCXK (Lu) 20190003. […] The dosage for rats was calculated based on the clinical dose. […] Samples were processed and analyzed by the validated method. Data were acquired and analyzed by Xcalibur 4.1 software (Thermo Fisher Scientific, Massachusetts, USA). […]
Structures can show the parent of a compound that is named as a salt.
measure: half-life (h)
Answer with a number only, understood to be in h.

Name the recorded half-life for CCc1ccc(CCOc2ccc(CC3SC(=O)NC3=O)cc2)nc1 (stereo not shown) [Pioglitazone, Pioglitazone hydrochloride] .
2.8
